value_type: MDR1-MDCK efflux ratio

Cc1sc2nc(CN3CCCC3)nc(N)c2c1C
17.6
Cc1ccc(-c2ccc(=O)n(Cc3ccncc3)n2)cc1
0.617
Nc1ccc(CC(=O)Nc2ccccc2F)cc1
0.66
Cc1cc2ncn(CC(=O)NC(C)(C)C)c2cc1C
5.53
COc1cc(CNCCN2CCOCC2)cc(Cl)c1OCc1ccccc1
1.94

a: Cc1ccc(C(=O)Nc2ccccc2-c2ccccc2)o1
b: C#CCOc1ccc(C(=O)NN2CCCC2=O)cc1
Prompt: Just tell me: smaller MDR1-MDCK efflux ratio value, a or b ? Give the label under which the chosen entry appears.
Response: a
(a: 0.465, b: 1.32)

A: Cc1ccc(NC(=O)OC(C)(C)C)c2c1N(C(=O)[C@H]1CCCO1)CCC2
B: CCOC1CCN(c2ccnc(C(=O)NCc3ccccc3)c2)CC1
C: O=C(Cn1nc(Cc2ccccc2)c2ccccc2c1=O)NCc1ncc[nH]1
Prompt: Given 3 compounds, produce a descending ranking by MDR1-MDCK efflux ratio. Returns: the labels arranged in the requested order.
Response: C, A, B
(C: 92.6, A: 2.91, B: 0.488)

P: Cc1cc(C(=O)NC2CCN(C(=O)c3cc(C)sc3C)CC2)no1
Q: CCOC(=S)SCC(=O)Nc1nc(-c2ccc(C3CCCCC3)cc2)cs1
Prompt: For this pair, P and Q , which shows a numerically higher MDR1-MDCK efflux ratio? When you have decided, please share the label of that item.
Response: P

1: CC(C(=O)Nc1ccc(C(N)=O)cc1)N1CCCC(c2nc3ccccc3o2)C1 (centres undefined)
2: O=C(Nc1nnc2n1CCCC2)c1cscn1
Prompt: // compare measured MDR1-MDCK efflux ratio between 1 and 2 ; output the lower one Please identify the chosen entry by its label.
Response: 2
(2: 4.14, 1: 15.1)

====

value_type: intrinsic clearance, human liver microsomes

Example entries and their recorded answers appear below.
O=C(NCc1ccc(F)cc1)C1CCN(C(=O)/C=C/c2ccc(F)cc2)CC1
≤ 4.74 mL/min/kg
O=C1CCCN1C(=O)COc1cccc(-c2nnco2)c1
≤ 4.74 mL/min/kg

Prompt: Item under review: O=C(NCC1(c2ccccc2)CC1)c1cccnc1 . Reported intrinsic clearance, human liver microsomes?
Response: ≤ 4.74 mL/min/kg

====

value_type: MDR1-MDCK efflux ratio

Here is how some compounds turned out for MDR1-MDCK efflux ratio.
COc1cc(Br)c(Nc2nc(-c3c(C)nc4ncccn34)cs2)c(Br)c1
2.59
Cc1nc(COc2ccc(F)cc2)sc1C(=O)N1CCC(C)CC1
0.543
Cc1nc2cc(NC(=O)CCc3c(C)nc4c(c(C)nn4C)c3C)ccc2o1
13.5
CCc1[nH]nc(NC2CCN(C(C)C)CC2)c1C
13.7
Cc1nccc(C2(C)CCN(CC(N)=O)CC2)n1
2.82
CCNc1nc(-c2cccnc2)nc(C)c1C
0.577

1: CNCc1cc(N(C)C)nc(C2CCCN2C(=O)C2CCCC2)n1 (stereo not drawn)
2: Cc1nn(C(C)C)c(C)c1S(=O)(=O)NCC1CCN(C(=O)C2CC2)CC1
Prompt: Returns: the argument ( 1 or 2 ) having the larger MDR1-MDCK efflux ratio. Your answer should be the label attached to the chosen record.
Response: 2
(2: 83.8, 1: 45.6)

====

value_type: intrinsic clearance, rat liver microsomes (mL/min/kg)

O=C(Nc1cnc2ccccc2n1)c1ccncc1
127
Cn1cc(-c2cccc3c(C(N)=O)cccc23)cn1
42.6
Cn1ccc(CN2CCC(c3cnccn3)CC2)n1
26.8

1: COc1ccc(-c2cc(C(C)(C)C)nc(-c3ncccn3)n2)cc1
2: CCn1ccc2cc(C(=O)N3CCN(c4ccc(C)cc4)C(=O)C3)ccc21
Prompt: Which record would sort first by descending intrinsic clearance, rat liver microsomes, 1 or 2 ? Field: selected label. Fill in the label of the entry you choose.
Response: 2
